Target: MMP-13 (Homo sapiens)
Assay: MMP-13 inhibition (thiopeptide or fluorescent peptide substrate)
Assay type: biochemical
Conditions: Table 11; read-out: MMP-13 IC50
Structures can show the parent of a compound that is named as a salt.
observable: pIC50
One number for each entry, as −log10 of the molar value.

Record excerpt, results attached:
- molecule: "CC#CCOc1ccc(S(=O)(=O)N2C[C@H](CC(N)=O)SC(C)(C)[C@@H]2C(=O)NO)cc1"
  numeric_readout: 7.54
- molecule: "CC#CCOc1ccc(S(=O)(=O)N2C[C@H](CC(=O)N(C)C)SC(C)(C)[C@@H]2C(=O)NO)cc1"
  numeric_readout: 7.64
- molecule: "CC#CCOc1ccc(S(=O)(=O)N2C[C@H](CN)SC(C)(C)[C@@H]2C(=O)NO)cc1 [Example 276, Hydrochloride]"
  numeric_readout: 7.62
- molecule: "CC#CCOc1ccc(S(=O)(=O)N2C[C@H](CC(=O)OC(C)(C)C)SC(C)(C)[C@@H]2C(=O)NO)cc1"
  numeric_readout: 8.12
- molecule: "CC#CCOc1ccc(S(=O)(=O)N2[C@@H](C(=O)NO)C(C)(C)SC[C@@H]2C)cc1"
  numeric_readout: 7.21

Look up pIC50 for the entries below, preserving their order.
1. CC#CCOc1ccc(S(=O)(=O)N2C[C@H](CC(=O)N3CCOCC3)SC(C)(C)[C@@H]2C(=O)NO)cc1
2. CC#CCOc1ccc(S(=O)(=O)N2[C@H](C)CSC(C)(C)[C@@H]2C(=O)NO)cc1

7.70
7.06
